# procedure_text: Quantitative High-Throughput drug screen in 47 multiple myeloma cell lines against the NCATS MIPE library collection: ARD_JJKsccE7 cell viability assay (AID 1918929;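 as to viability: 100% = DMSO-only wells and 0% = media-only wells without cells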)
# measurement_parameters: ARD myeloma cell line viability, CellTiter-Glo, 48 h; series mostly up to 45.8 µM
Records with an inconclusive call do not appear. The source made the active and inactive calls. Calls follow the shape of the dose curve; as a rule, active = well fitted cell-killing curve with a large enough effect; inconclusive = small, poorly fitted or top-dose-only effect, or effect the other way; inactive = no such curve, though single readings can be large or run the other way.
Permitted responses: 1 = active, -1 = inactive

>>> print(df.to_string())
                                   compound  assigned_category
0  CC(C)c1cc(C(=O)N2Cc3ccc(CN4CCN(C)CC4)cc3C2)c(O)cc1O                  1
1  Cc1cc(Nc2cc(NC(=O)c3c(Cl)cccc3Cl)ccn2)nc(N)n1                  1
2  COC(=O)[C@]12CCC(C)(C)C[C@@H]1[C@@H]1C(=O)C=C3[C@@]4(C)C=C(C#N)C(=O)C(C)(C)[C@@H]4CC[C@@]3(C)[C@]1(C)CC2                  1

Would you mind telling me which call this test gave O=C1CCC[C@@H]2[C@H]3CCC[N+]4([O-])CCC[C@@H](CN12)[C@@H]34 (some centres undefined) ?
-1

Would you mind telling me which call this test gave "CC(C)c1nn(-c2c(Cl)cccc2Cl)c2nc(Cc3ccc(OCCO)cc3)[nH]c(=O)c12" ?
-1

Would you mind telling me which call this test gave "CNC(=O)CN1CCC(Oc2cc3c(Nc4cccc(Cl)c4F)ncnc3cc2OC)CC1" ?
1

###

# Test system: AS120
# procedure_text: qHTS profiling for inhibitors of Plasmodium falciparum proliferation (AID 504749); also: nearly all actives have a fitted effect of over 60% in size; also: potency is read from the fitted curve at half-maximal effect
# measurement_parameters: P. falciparum in erythrocytes, SYBR Green DNA, 72 h; series mostly up to 28.7 µM
Inconclusive results are not listed. Activity calls are given as the source filed them. Calls follow the shape of the dose curve; as a rule, active = well fitted inhibition curve with a large enough effect; inconclusive = small, poorly fitted or top-dose-only effect; inactive = flat fitted curve, though single readings scatter.
property_label: Potency

Observe how each entry below is paired with its result.
>>> print(df.to_string())
                                   molecule  property_label      recorded_value
0             Nc1ccc(S(=O)(=O)Nc2ncccn2)cc1         Potency            inactive
1  COC(=O)C[C@](O)(CCCC(C)(C)O)C(=O)O[C@@H]1C(OC)=C[C@]23CCCN2CCc2cc4c(cc2[C@H]13)OCO4         Potency  0.0158 µM (active)
2       Nc1ccn([C@@H]2CS[C@H](CO)O2)c(=O)n1         Potency            inactive
3  COC(=O)C1=C(C)NC(C)=C(C(=O)OCCN2CCN(C(c3ccccc3)c3ccccc3)CC2)C1c1cccc([N+](=O)[O-])c1 (centres undefined)         Potency       2 µM (active)
4  CC1(C)O[C@@H]2C[C@@H]3[C@H]4C[C@@H](F)C5=CC(=O)C=C[C@]5(C)[C@@]4(F)[C@@H](O)C[C@]3(C)[C@]2(C(=O)CO)O1         Potency            inactive
5  O=c1[nH]c(=O)n(C2CCCO2)cc1F (centres undefined)         Potency            inactive
6  CN1c2cc(O)c(N=NC(N)=O)cc2CC1S(=O)(=O)O (centres undefined)         Potency            inactive
7  CC=CC1=C(C(=O)O)N2C(=O)[C@H](NC(=O)[C@H](N)c3ccc(O)cc3)[C@@H]2SC1         Potency            inactive

Continue with the molecule presented below.
Form field: Potency recorded for "COc1cc(C(=O)NS(=O)(=O)c2ccccc2C)ccc1Cc1cn(C)c2ccc(NC(=O)OC3CCCC3)cc12" with AS120 (enter value)
inactive

###

# procedure_text: qHTS Screen of the MIPE 4.0 Collection Against Ewings Sarcoma (RDES) (AID 1259252); also: nearly all actives have a fitted effect of over 35% in size
# measurement_parameters: RD-ES Ewing sarcoma viability, CellTiter-Glo, 48 h; series mostly up to 45.8 µM
Inconclusive results are not listed. The source made the active and inactive calls. Calls follow the shape of the dose curve; as a rule, active = well fitted inhibition curve with a large enough effect; inconclusive = small, poorly fitted or top-dose-only effect; inactive = no such curve, though single readings can be large or run the other way.
Permitted responses: yes (1) = active, no (0) = inactive

>>> df
                                        mol  assigned_category
0  O=C(CCCCCCNC(=O)c1cnc(N(c2ccccc2)c2ccccc2)nc1)NO            yes (1)

Would you mind telling me which call this test gave "CC(C)(C)OC(=O)Nc1ccc(-c2cc(C(=O)NCCCCCCC(=O)NO)no2)cc1" ?
yes (1)

Would you mind telling me which call this test gave "CN1CCC(CNc2ccc3ncc(-c4cccc(OC(F)(F)F)c4)n3n2)CC1" ?
yes (1)

Would you mind telling me which call this test gave "CC[C@@]1(O)C(=O)OCc2c1cc1n(c2=O)Cc2cc3cc(O)ccc3nc2-1" ?
yes (1)

Would you mind telling me which call this test gave "Cc1coc2c1C(=O)C(=O)c1c-2ccc2c1CCCC2(C)C" ?
no (0)

Would you mind telling me which call this test gave "CC[C@H]1CN2CCc3cc(OC)c(OC)cc3[C@H]2C[C@@H]1C[C@@H]1NCCc2cc(OC)c(OC)cc21" ?
yes (1)

###

# procedure_text: Quantitative High-Throughput drug screen in 47 multiple myeloma cell lines against the NCATS MIPE library collection: PCM6_Riken cell viability assay (AID 1919870); also: potency is read from the fitted curve at half-maximal effect; nearly all actives have a fitted effect of over 30% in size
# measurement_parameters: CellTiter-Glo ATP, 48 h; series mostly up to 45.8 µM
Results filed as inconclusive are left out. Calls of active or inactive are those of the source. Calls follow the shape of the dose curve; as a rule, active = well fitted cell-killing curve with a large enough effect; inconclusive = small, poorly fitted or top-dose-only effect, or effect the other way; inactive = no such curve, though single readings can be large or run the other way.
Permitted responses: active, inactive

Example entries begin here.
>>> df
                                   compound  assigned_category
0  C[C@]1(CO)CN(c2cc(C(=O)Nc3ccc4c(c3)-c3c(c(C(N)=O)nn3-c3ccc(F)cc3)CC4)c(Cl)cn2)C[C@@]1(C)CO             active
1  CNC(=O)c1ccc(N2C(=S)N(c3cnc(C#N)c(C(F)(F)F)c3)C(=O)C23CCC3)cc1F             active

Would you mind telling me which call this test gave "c1ccc2c(CCNc3ccc(Nc4ccncc4)cc3)c[nH]c2c1" ?
active

Would you mind telling me which call this test gave "COc1cc(OC2CCN(C)CC2)ccc1Nc1ncc2c(n1)n(C1CCCC1)c(=O)n2C" ?
active

Would you mind telling me which call this test gave "CC(C)c1nn(-c2c(Cl)cccc2Cl)c2nc(Cc3ccc(OCCO)cc3)[nH]c(=O)c12" ?
active

Would you mind telling me which call this test gave "O=c1c2ccccc2nc2n1CCc1c-2[nH]c2ccccc12" ?
active

Would you mind telling me which call this test gave "CN(C)Cc1c(C(=O)NCCOc2ccc(C(=O)NO)cc2)oc2ccccc12" ?
active

Would you mind telling me which call this test gave "COc1cc2c(cc1-c1c(C)noc1C)ncc1[nH]c(=O)n([C@H](C)c3ccccn3)c12" ?
active

Would you mind telling me which call this test gave "Nc1cccc(-c2cc3c(Oc4cccc(O)c4)ncnc3[nH]2)c1" ?
active

Would you mind telling me which call this test gave "Nc1ccccc1NC(=O)c1ccc(CNC(=O)OCc2cccnc2)cc1" ?
active

###

# Test system: CP217
# procedure_text: qHTS profiling for inhibitors of Plasmodium falciparum proliferation (AID 504749); also: nearly all actives have a fitted effect of over 60% in size
# measurement_parameters: P. falciparum in erythrocytes, SYBR Green DNA, 72 h; series mostly up to 28.7 µM
Inconclusive results are not listed. Calls of active or inactive are those of the source. Calls come from the whole dose curve; as a rule, active = well fitted inhibition curve with a large enough effect; inconclusive = small, poorly fitted or top-dose-only effect; inactive = flat fitted curve, though single readings scatter.
Permitted responses: active, inactive

Example entries begin here.
In [3]: df
Out[3]:
                                   compound  assigned_category
0  COC(=O)C1=C(C)NC(C)=C(C(=O)OCCN2CCN(C(c3ccccc3)c3ccccc3)CC2)C1c1cccc([N+](=O)[O-])c1 (centres undefined)             active
1             O=C(O)CO.[NH2-].[NH2-].[Pt+2]           inactive
2  COC(=O)C[C@](O)(CCCC(C)(C)O)C(=O)O[C@@H]1C(OC)=C[C@]23CCCN2CCc2cc4c(cc2[C@H]13)OCO4             active

Shift focus to the following entry.
Would you mind telling me which call this test gave "Nc1ccn([C@@H]2CS[C@H](CO)O2)c(=O)n1" ?
inactive

###

# Tested on: HeLa
# procedure_text: Primary qHTS to identify gynecologic anti-cancer compounds using libraries of approved drugs and bioactive compounds (AID 1345084); also: nearly all actives have a fitted effect of over 55% in size
# measurement_parameters: Gynecologic cancer cell panel viability, ATPlite luminescence, 48 h; series mostly up to 57.5 µM
Records with an inconclusive call do not appear. Calls of active or inactive are those of the source. The call rests on the fitted dose curve; in most records, active means well fitted cell-killing curve with a large enough effect; inconclusive means small, poorly fitted or top-dose-only effect, or effect the other way; inactive means flat fitted curve, though single readings scatter.
Permitted responses: active, inactive

Example entries begin here.
>>> print(df.to_string())
                                   molecule  assigned_category
0  O=C1CCC[C@@H]2[C@H]3CCC[N+]4([O-])CCC[C@@H](CN12)[C@@H]34 (stereo partly specified)           inactive
1              C1Cc2[nH]nc(-c3nn[nH]n3)c2C1           inactive
2  O=C(O)C1(Cc2cccc(Nc3nccs3)n2)CCC(Oc2cccc(Cl)c2F)CC1 (stereo unspecified)             active
3  CNC(=O)c1ccccc1Nc1nc(Nc2ccc(N3CCOCC3)cc2OC)ncc1Cl             active
4       CC(=O)Nc1sc2c(c1-c1nc3ccccc3s1)CNC2           inactive

Shift focus to the following entry.
Would you mind telling me which call this test gave "O=C(c1cncc(Br)c1)N1CCC(N2CCCC2)CC1" ?
inactive

Origin of values: PubChem BioAssay (NCATS)
